assay-explanation: protein stability index of a GFP-peptide fusion (yeast GPS) (PSI 1-4); higher = more stable; sorted into four equal gates, so the index is relative within each strain
condition-set: ubr1∆
Think of 3 as a floor: if protein stability index stands on it or above, it is YES; beneath it, NO.

The examples below pair each entry with its known result.
Input line: Check if protein stability index >= 3 (inclusive). Item: RAVKEIKKFAKLHMGTE [RPL31B]
Output line: NO

Input line: Check if protein stability index >= 3 (inclusive). Item: ILQIREEIPSKSWDDSV [RRP6]
Output line: NO

Input line: Check if protein stability index >= 3 (inclusive). Item: RKQIQLLKKIIFEKELM [SRB4]
Output line: NO

Input line: Check if protein stability index >= 3 (inclusive). Item: RLQAANSMEYTGKITKM [CDC53]
Output line: NO

Input line: Check if protein stability index >= 3 (inclusive). Item: TELMNRSPLVTPMDESS [SRP72]
Output line: NO

Others:
Input line: Check if protein stability index >= 3 (inclusive). Item: PISKHSKQAIYTRATAS [RPS25A]
Output line: NO

Input line: Check if protein stability index >= 3 (inclusive). Item: INIKYLRLDGHTKSDER [SNF2]
Output line: NO

Input line: Check if protein stability index >= 3 (inclusive). Item: NIKIDAKPALFERFINA [MCD1]
Output line: NO

Input line: Check if protein stability index >= 3 (inclusive). Item: SPFLMGHPMTKSVYETP [SEC65]
Output line: NO

Input line: Check if protein stability index >= 3 (inclusive). Item: DSFIFDGTAKEVGDEAD [MED4]
Output line: YES

Input line: Check if protein stability index >= 3 (inclusive). Item: HCDKCSVVLTLQAFGES [RPB3]
Output line: NO

Input line: Check if protein stability index >= 3 (inclusive). Item: NEGVPSPMLSISNLTQE [FAS1]
Output line: YES

Input line: Check if protein stability index >= 3 (inclusive). Item: RRRDGVFLYFEDNAGVI [RPL23A]
Output line: NO

Input line: Check if protein stability index >= 3 (inclusive). Item: RDLKPSNLEKLLFINSS [YML103C/NUP188]
Output line: NO

Input line: Check if protein stability index >= 3 (inclusive). Item: QWGKYQTFGVDILAKLF [SWI1]
Output line: NO

Input line: Check if protein stability index >= 3 (inclusive). Item: TMMTVEEKPDVTYSDVG [RPT1]
Output line: NO

Input line: Check if protein stability index >= 3 (inclusive). Item: GGNNNNNSTGIANDNVI [SWI1]
Output line: YES

Input line: Check if protein stability index >= 3 (inclusive). Item: VIKLAKYPDYFPEWKKS [ARP9]
Output line: YES

Input line: Check if protein stability index >= 3 (inclusive). Item: FKYVSVRYEEKRELKQL [BRR2]
Output line: YES

Input line: Check if protein stability index >= 3 (inclusive). Item: LKAQITSLKCLVNRKPI [SNF2]
Output line: NO

Input line: Check if protein stability index >= 3 (inclusive). Item: EDNEMLEDLFSYRNGMA [YJR042W/NUP85]
Output line: NO
